System: LOX IMVI melanoma
Assay: NCI tumour cell line growth inhibition, 48 h
// TGI lookup, one value per entry

Consider the worked cases shown below.
compound | TGI
CC(C)[Si](OCC1CC(C#N)OC(C)(C)O1)(C(C)C)C(C)C (configuration not stated) | 33.7 µM
CN1CN(C(=O)N2CN(C)C(=O)N(C)C2)CN(C)C1=O | > 100 µM
C=CC[C@H](N=C(SC)SC)C(=O)N1C(=O)N(C)[C@@H](C)[C@H]1c1ccccc1 | > 100 µM
O=c1[nH]nc(-c2ccccc2)n1-n1cnnc1 | > 100 µM
CN/N=C(\C(=O)Nc1ccc(C)c(C)c1)C(C(=O)OC)c1nc2ccc([N+](=O)[O-])cc2[nH]c1=O (configuration not stated) | > 100 µM

(Q) What measured TGI goes with Cc1ccc(/C=C2\N=C(N3CCCC(CO)C3)NC2=O)cc1 (configuration not stated) ?
(A) > 100 µM

(Q) What measured TGI goes with CCNC(=S)N/N=C(\C)c1cccc(C)n1 ?
(A) > 100 µM

(Q) What measured TGI goes with CC1C2(C)OCC(C#N)(C(=N)O2)C1(C#N)C#N (configuration not stated) ?
(A) 40.4 µM

(Q) What measured TGI goes with O=C1C=Cc2ncccc2C1=O ?
(A) 26.9 µM

(Q) What measured TGI goes with S=c1nc[nH]c2c1ncn2C1CCCO1 (configuration not stated) ?
(A) > 100 µM

(Q) What measured TGI goes with COc1cc(-c2cc(=O)c3c(O)c(OC)c(OC)c(OC)c3o2)cc(OC)c1OC ?
(A) > 100 µM

(Q) What measured TGI goes with CC(NC(=O)C(Cc1ccc(OC(=O)c2ccccc2)cc1)NC(=O)OC(C)(C)C)C(=O)NCC(=O)NC(Cc1ccccc1)C(=O)NN (configuration not stated) ?
(A) 45 µM

(Q) What measured TGI goes with CC/C(=C\c1ccc(OC)cc1)c1ccc(OC)cc1 ?
(A) > 100 µM

(Q) What measured TGI goes with CCOC(=O)/C=C/[C@@H](CC)O[Si](C(C)C)(C(C)C)C(C)C ?
(A) > 100 µM

(Q) What measured TGI goes with COc1ccc(C(=O)c2cc3c(N)c(C(=O)Nc4cccc(OC)c4)sc3nc2C)cc1 ?
(A) > 100 µM

(Q) What measured TGI goes with Cc1ccc2nc(NC(=O)C(=O)CC(=O)c3cccc4ccccc34)sc2c1 ?
(A) > 100 µM

(Q) What measured TGI goes with O=C(Nc1cccc(C(F)(F)F)c1)c1cc2ccccc2cc1O ?
(A) 14.3 µM

(Q) What measured TGI goes with CC[C@@]1(O)C(=O)OCc2c1cc1n(c2=O)Cc2c-1nc1ccccc1c2/C=N\NC(=O)C(N)Cc1c[nH]c2ccccc12 (some centres not stated) ?
(A) 3.27 µM

(Q) What measured TGI goes with CC(C)c1ccc(/C=C2\CSCC3=C2N=C2SCC(=O)N2C3c2ccc(C(C)C)cc2)cc1 (configuration not stated) ?
(A) > 100 µM

(Q) What measured TGI goes with COc1ccc(NC(=O)C2C(=O)N(c3ccc(OC)cc3)C(=O)/C2=N\NC(N)=O)cc1 (configuration not stated) ?
(A) > 100 µM

(Q) What measured TGI goes with S=c1c2ccccc2c(=S)n2n1CC=CC2 ?
(A) > 100 µM

(Q) What measured TGI goes with Cc1ccc(/C=C2/N=C(N/N=C\c3ccccc3)NC2=O)cc1 ?
(A) > 100 µM

Numbers sourced from PubChem BioAssay (NCI).
